# SYSTEM_UNDER_TEST: Aβ1-42 polypeptide (human)
# Sequence (peptide, as listed by the source): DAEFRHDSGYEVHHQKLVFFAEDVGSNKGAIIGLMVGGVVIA
# ASSAY_COMMENT: cell-based or functional assay
Entries annotated with measured relative value of LDH release (SHSY5Y cells with Aβ; hIgG = 1.00)

Known relative value of LDH release (SHSY5Y cells with Aβ; hIgG = 1.00) results, listed for orientation:
Q: Which value of relative value of LDH release (SHSY5Y cells with Aβ; hIgG = 1.00) has been reported for 066-4.26.14H2L2 (antibody, human IgG1, V domains shown, Humanized full-length antibody; human IgG1 heavy constant and human kappa light constant (vectors pGS003-hIgG1CH, pGS003-hIgKCL)) VH: EVQLVESGGGLVKPGGSLRLSCAASGFTFRSYAMSWVRQTPEKRLEWVASISTTSNTYYPDSVKGRFTTSRDNAKNSVYLQMSSLRAEDTAVYYCGRGVITNQAWFAYWGQGTTVTVSS VL: DIVLTQSPATLSVSPGERATLSCRASQSISNNLHWYQQKPGQAPRLLIKYASQSISGIPARFSGSGSGTDFTLTISSLQSEDFAVYFCQQSNSWPLTFGGGTKVEIKR in the records?
Ans: 1.41 relative to hIgG

Q: Moving on to the next binder: 066-4.26.14H4L2 (antibody, human IgG1, V domains shown, Humanized full-length antibody; human IgG1 heavy constant and human kappa light constant (vectors pGS003-hIgG1CH, pGS003-hIgKCL)) VH: EVQLVESGGGLVQPGGSLRLSCAASGFTFRSYAMSWVRQAPGKGLEWVASISTTSNTYYPDSVKGRFTTSRDNAKNSVYLQMSSLRDEDTAMYYCGRGVITNQAWFAYWGQGILVTVSS VL: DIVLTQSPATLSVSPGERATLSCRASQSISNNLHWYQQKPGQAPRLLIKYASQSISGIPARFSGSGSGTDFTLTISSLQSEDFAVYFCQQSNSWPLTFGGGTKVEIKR
Ans: 1.3 relative to hIgG

***
Q: Which value of relative value of LDH release (SHSY5Y cells with Aβ; hIgG = 1.00) has been reported for 066-4.26.14 (antibody, V domains shown, Murine hybridoma antibody) VH: EVKLVESGGGLVKPGGSLKLSCAASGFTFRSYAMSWVRQTPEKRLEWVASISTTSNTYYPDSVKGRFTTSRDNARNIVYLQMSSLRSDDTAMYYCGRGVITNQAWFAYWGQGTLVTVSA VL: DIVLTQSPATLSVTPGDSVSLSCRASQSISNNLHWYQQKSHESPRLLIKYASQSISGIPSRFSGSGSGTDFTLSVNNVGTEDFGMYFCQQSNSWPLTFGAGTKLELK in the records?
Ans: 1.2 relative to hIgG

Q: Moving on to the next binder: 066-4.26.14 mouse-human chimeric antibody (antibody, human IgG1, V domains shown) VH: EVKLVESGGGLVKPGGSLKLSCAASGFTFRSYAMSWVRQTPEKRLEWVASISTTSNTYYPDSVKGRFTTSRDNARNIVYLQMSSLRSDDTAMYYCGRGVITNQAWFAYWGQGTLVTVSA VL: DIVLTQSPATLSVTPGDSVSLSCRASQSISNNLHWYQQKSHESPRLLIKYASQSISGIPSRFSGSGSGTDFTLSVNNVGTEDFGMYFCQQSNSWPLTFGAGTKLELKR
Ans: 1.32 relative to hIgG

Q: Moving on to the next binder: 066-4.26.14H5L2 (antibody, human IgG1, V domains shown, Humanized full-length antibody; human IgG1 heavy constant and human kappa light constant (vectors pGS003-hIgG1CH, pGS003-hIgKCL)) VH: EVQLVESGGGLVQPGGSLRLSCVASGFTFRSYAMSWVRQAPGKGLEWVASISTTSNTYYPDSVKGRFTTSRDNSKNTVYLQMSSLRAEDTAVYYCGRGVITNQAWFAYWGQGTLVTVSS VL: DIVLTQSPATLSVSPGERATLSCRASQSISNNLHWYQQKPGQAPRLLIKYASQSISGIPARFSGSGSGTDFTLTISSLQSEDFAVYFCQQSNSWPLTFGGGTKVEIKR
Ans: 1.26 relative to hIgG
